System: Mu-type opioid receptor (Homo sapiens, UniProt P35372) | Read-out: Ki
Sequence (P35372 whole entry): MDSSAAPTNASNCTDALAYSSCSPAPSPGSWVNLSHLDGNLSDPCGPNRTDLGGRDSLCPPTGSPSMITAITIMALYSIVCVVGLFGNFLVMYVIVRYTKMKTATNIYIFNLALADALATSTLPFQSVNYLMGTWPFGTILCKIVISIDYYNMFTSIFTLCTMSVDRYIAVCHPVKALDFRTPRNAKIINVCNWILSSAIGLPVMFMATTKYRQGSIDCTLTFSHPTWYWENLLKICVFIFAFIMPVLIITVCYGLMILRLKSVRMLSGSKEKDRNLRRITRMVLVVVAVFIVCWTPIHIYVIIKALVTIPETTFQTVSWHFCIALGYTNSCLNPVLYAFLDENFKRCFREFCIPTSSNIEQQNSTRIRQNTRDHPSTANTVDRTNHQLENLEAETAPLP
quantity.measured: Ki

{"columns": ["compound", "measurement"],
 "data": [
  ["CCCC(C)CN1CCC(c2cccc(O)c2)(c2ncc(C(=O)N(CC)CC)cn2)CC1 (stereo not drawn)", "> 890 nM"],
  ["CCC[C@@H](C)CN1CCC(c2cccc(O)c2)(c2ncc(C(=O)N(CC)CC)cn2)CC1", "830 nM"],
  ["CCCC(C)CN1CCC(c2ccc(C(=O)N(C)C)cc2)(c2cccc(O)c2)CC1 (stereo not drawn)", "> 890 nM"]
]}

###

Experiment: Fraction unbound in mouse at 32 mg/kg, sc after 4 hrs
Assay type: ADME, organism-based
Design: dose 32 mg/kg, route subcutaneous
Conditions: in vivo

{"columns": ["compound.structure", "fraction unbound at 4 h"],
 "data": [
  ["CCC[C@@H](C)CN1CCC(c2cccc(O)c2)(c2ncc(C(=O)N(CC)CC)cn2)CC1", 0.3]
]}
